Molecular target: human ether-à-go-go-related gene (hERG) potassium channel (human, UniProt Q12809)
Sequence (Q12809 whole entry, looked up): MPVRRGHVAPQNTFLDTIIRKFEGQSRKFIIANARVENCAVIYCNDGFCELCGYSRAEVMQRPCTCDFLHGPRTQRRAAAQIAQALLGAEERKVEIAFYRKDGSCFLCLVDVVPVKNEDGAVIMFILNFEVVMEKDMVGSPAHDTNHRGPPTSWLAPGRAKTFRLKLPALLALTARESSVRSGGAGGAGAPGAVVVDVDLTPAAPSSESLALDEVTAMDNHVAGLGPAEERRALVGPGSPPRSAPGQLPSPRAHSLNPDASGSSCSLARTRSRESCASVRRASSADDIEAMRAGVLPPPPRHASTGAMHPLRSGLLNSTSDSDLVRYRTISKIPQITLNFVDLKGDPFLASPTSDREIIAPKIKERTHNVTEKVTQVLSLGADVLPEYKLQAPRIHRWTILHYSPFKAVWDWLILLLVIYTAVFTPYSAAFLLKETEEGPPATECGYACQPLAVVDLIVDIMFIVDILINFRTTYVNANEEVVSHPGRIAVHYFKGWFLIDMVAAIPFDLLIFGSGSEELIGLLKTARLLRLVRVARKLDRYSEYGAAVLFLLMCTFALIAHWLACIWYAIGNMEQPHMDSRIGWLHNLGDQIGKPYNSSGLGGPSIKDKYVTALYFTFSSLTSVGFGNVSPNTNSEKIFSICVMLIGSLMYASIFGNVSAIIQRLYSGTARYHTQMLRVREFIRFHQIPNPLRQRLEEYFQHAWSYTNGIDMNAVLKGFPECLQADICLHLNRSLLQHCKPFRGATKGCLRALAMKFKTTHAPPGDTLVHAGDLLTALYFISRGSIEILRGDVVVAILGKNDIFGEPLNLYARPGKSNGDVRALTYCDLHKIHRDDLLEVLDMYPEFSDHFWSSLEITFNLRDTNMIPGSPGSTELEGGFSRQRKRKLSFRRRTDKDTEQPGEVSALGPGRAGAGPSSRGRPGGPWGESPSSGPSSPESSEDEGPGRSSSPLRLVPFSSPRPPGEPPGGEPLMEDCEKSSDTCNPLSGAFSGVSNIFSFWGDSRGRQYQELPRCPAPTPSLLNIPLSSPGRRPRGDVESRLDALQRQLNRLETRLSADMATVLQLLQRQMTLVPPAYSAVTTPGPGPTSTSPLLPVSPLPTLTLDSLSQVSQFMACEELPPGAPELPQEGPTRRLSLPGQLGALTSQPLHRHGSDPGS
Experiment: primary screen, population patch clamp on CHO cells stably expressing hERG; higher = less effect of the substance
In all, about 310,000 compounds went through this assay and about 2,200 (0.71%) showed an effect of 50% or more. The effect is printed as a negative number. Many of the other results were omitted from the sample, so strong results are more common in it than they were.
recorded-metric: hERG current change (%, negative = inhibition) at 1uM (%)
Dear colleague, please return just the value in %, with no unit written.

Worked set:
> print(dat)
                                   compound                           target.of.assay  experimental.value
1                      Brc1ccc(-c2cnco2)cc1  human ether-à-go-go-related gene (hERG) potassium channel (human, UniProt Q12809)                9.53
2           O=C(Cc1ccccc1)Nc1ccc(SC(F)F)cc1  human ether-à-go-go-related gene (hERG) potassium channel (human, UniProt Q12809)                2.98
3  CCn1c(N)[n+](CC(=O)Nc2ccc(SC(F)F)cc2)c2ccccc21.[Cl-]  human ether-à-go-go-related gene (hERG) potassium channel (human, UniProt Q12809)               -63.1
4  C=CCn1c(SCC(=O)Nc2ccc3c(c2)CCC3)nnc1-c1cccs1  human ether-à-go-go-related gene (hERG) potassium channel (human, UniProt Q12809)               -83.5
5  O=C(NC12CC3CC(CC(C3)C1)C2)c1ccc(-c2cccc(Cl)c2)o1  human ether-à-go-go-related gene (hERG) potassium channel (human, UniProt Q12809)                21.9
6  OCC1(Cc2ccccc2)CCCN(C2CCCC2)C1 (stereo not drawn)  human ether-à-go-go-related gene (hERG) potassium channel (human, UniProt Q12809)               -3.43
7  CC(OC(=O)c1ccccc1NCCO)C(=O)Nc1ccc(S(=O)(=O)N2CCOCC2)cc1 (stereo not drawn)  human ether-à-go-go-related gene (hERG) potassium channel (human, UniProt Q12809)                11.6
8  OCCC1CN(C2CCN(c3ccccc3F)CC2)CCN1Cc1ccccc1 (stereo not drawn)  human ether-à-go-go-related gene (hERG) potassium channel (human, UniProt Q12809)               -1.66

Let us move to another entry and its hERG current change (%, negative = inhibition) at 1uM.
// hERG current change (%, negative = inhibition) at 1uM lookup, key: Cc1ccc(NC(=O)Cc2ccc([N+](=O)[O-])cc2)c(Br)c1
5.32
